- assay-overview: Metabolic stability test in hepatocytes
- Assay type: in vitro ADME
- experimental-context: cryopreserved hepatocytes, Mouse hepatocytes, read-out: In vitro Clint (μL/min/10^6 cells)
measure-name: hepatocyte CLint at 1 μM
Give the number first and the unit second.

Qu. # input compound: COc1cc(S(C)(=O)=O)ccc1NCC#Cc1nc2c(N[C@@H]3CCN(C)C[C@@H]3F)cccn2c1CC(F)(F)F [Cpd-B, reference compound] ; wanted: its hepatocyte CLint at 1 μM
Ans. 198 µL/min/1e6 cells

----------
- test-target: CYP2C19 (Homo sapiens (Human), UniProt P33261)
- Sequence (P33261 whole entry): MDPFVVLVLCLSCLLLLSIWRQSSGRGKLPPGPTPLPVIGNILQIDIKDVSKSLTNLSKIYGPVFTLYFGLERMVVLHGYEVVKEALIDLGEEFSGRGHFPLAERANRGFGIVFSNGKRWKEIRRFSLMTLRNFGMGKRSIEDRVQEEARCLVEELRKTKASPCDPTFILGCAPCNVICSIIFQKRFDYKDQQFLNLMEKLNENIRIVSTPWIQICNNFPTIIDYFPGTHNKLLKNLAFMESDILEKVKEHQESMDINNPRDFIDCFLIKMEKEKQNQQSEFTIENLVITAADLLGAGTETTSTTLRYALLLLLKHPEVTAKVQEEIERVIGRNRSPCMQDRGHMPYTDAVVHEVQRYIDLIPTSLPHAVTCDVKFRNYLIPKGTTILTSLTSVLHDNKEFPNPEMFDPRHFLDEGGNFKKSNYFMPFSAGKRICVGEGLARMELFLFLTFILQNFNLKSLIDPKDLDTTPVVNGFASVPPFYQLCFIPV
- assay-overview: Inhibitory activity on CYP isoenzymes at a single concentration
- Assay type: in vitro ADME
- experimental-context: pH 7.4, probe mephenytoin; final compound concentration 10 μM; human liver microsomes; substrate mephenytoin; NI: no inhibition; read-out: Inhibition rate (%) CYP2C19
measure-name: inhibition at 10 min, 10 µM (%)
Numbers only, in %.

Qu. What is its inhibition at 10 min, 10 µM for CYP2C19 (Homo sapiens (Human), UniProt P33261)? Entry: `[2H]C([2H])([2H])Oc1nc(C(=O)NS(C)(=O)=O)ccc1NCC#Cc1cc2c(N[C@@H]3CCN(C)C[C@@H]3F)cccn2c1CC(F)(F)F`
Ans. 8.4

----------
Provide the recorded pIC50 for the entries that follow.
- System: NUGC-3 cells
- assay-overview: Anti-proliferation effect on NUGC-3 cells (Cell Counting Kit-8)
- Type: cell-based
- experimental-context: Homo sapiens, NUGC-3, 120 h; 5 days of treatment
Numbers only, as −log10 of the molar value.

[2H]C([2H])([2H])Oc1nc(C(=O)NS(=O)(=O)CC2CC2)ccc1NCC#Cc1cc2c(N[C@@H]3CCN(C)C[C@@H]3F)cccn2c1CC(F)(F)F [Cpd-5] : 7.09
COc1nc(C(=O)NS(=O)(=O)C2CC2)ccc1NCC#Cc1cc2c(N[C@@H]3CCN(C)C[C@@H]3F)cccn2c1CC(F)(F)F [Cpd-7] : 7.15
[2H]C([2H])([2H])Oc1nc(C(=O)NS(C)(=O)=O)ccc1NCC#Cc1cc2c(N[C@@H]3CCN(C)C[C@H]3F)cccn2c1CC(F)(F)F [Cpd-10] : 6.05

Items follow; give pIC50 for each.
1. COc1nc(C(=O)NS(C)(=O)=O)ccc1NCC#Cc1cc2c(N[C@@H]3CCN(C)C[C@@H]3F)cccn2c1CC(F)(F)F [Cpd-1]
2. [2H]C([2H])([2H])Oc1nc(C(=O)NS(=O)(=O)CC(F)(F)F)ccc1NCC#Cc1cc2c(N[C@@H]3CCN(C)C[C@@H]3F)cccn2c1CC(F)(F)F [Cpd-6]
3. [2H]C([2H])([2H])Oc1nc(C(=O)NS(C)(=O)=O)ccc1NCC#Cc1cc2c(N[C@H]3CCN(C)C[C@H]3F)cccn2c1CC(F)(F)F [Cpd-8]
4. [2H]C([2H])([2H])Oc1nc(C(=O)NS(=O)(=O)C2CC2)ccc1NCC#Cc1cc2c(N[C@@H]3CCN(C)C[C@@H]3F)cccn2c1CC(F)(F)F [Cpd-4]

Ans.
[7.00, 6.72, 6.47, 7.01]

The measured values listed here are drawn from patent US20250304578A1.
